system: 454973-116-R2-J3-PDC spheroids, viability, % test/control; assay: Anticancer human tumor 454973-116-R2-J3-PDC patient-derived pancreatic carcinoma cell line growth inhibition [GQUAD]; settings: second compound 3.16 µM; first compound 0.316 µM; active compounds read low; spheroids with HUVEC and MSC
QUANTITY_KIND: viability, T/C (%)

>>> val("Nc1ccn(C2OC(CO)C(O)C2(F)F)c(=O)n1 (stereo not given) + CN(C)c1ccc(Nc2c3ccc(NC(=O)CCN4CCCC4)cc3nc3cc(NC(=O)CCN4CCCC4)ccc23)cc1")
17.4
>>> val("C#Cc1c(F)ccc2cc(O)cc(-c3ncc4c(N5CC6CCC(C5)N6)nc(OCC56CCCN5CC(F)C6)nc4c3F)c12 (stereo not given) + CN(C)c1ccc(Nc2c3ccc(NC(=O)CCN4CCCC4)cc3nc3cc(NC(=O)CCN4CCCC4)ccc23)cc1")
26.9
>>> val("C=CC(=O)N1CCN(c2nc(=O)n(-c3c(C)ccnc3C(C)C)c3nc(-c4c(O)cccc4F)c(F)cc23)C(C)C1 (stereo not given) + Cc1cnc(CNC(=O)c2c(=O)c3ccc(N4CCCN(C)CC4)nc3n3c2sc2ccccc23)cn1")
78.5
>>> val("Cc1cccc(N(C)C(=O)C2C(O)CCN2c2nc(C)cc(C(F)(F)F)c2C#N)c1 (stereo not given) + Cc1cnc(CNC(=O)c2c(=O)c3ccc(N4CCCN(C)CC4)nc3n3c2sc2ccccc23)cn1")
62.1
>>> val("CC1COCCN1c1cc(-c2ccnn2C)c2ccnc(-c3ccn[nH]3)c2n1 (stereo not given) + Cc1[nH]c2ccc(F)cc2c1-c1nc2c3cccnc3c3ncccc3c2[nH]1")
30.2

----------
Test system: 454973-116-R2-J3-PDC spheroids, viability, % test/control
Assay: Anticancer human tumor 454973-116-R2-J3-PDC cell line growth inhibition [GQUAD]; active means viability on the fitted dose curve at most 10% of control; inactive means the rest;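 also: spheroids exposed to compounds for seven days; 100% = DMSO vehicle control viability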
Details: second compound 3.16 µM; first compound 0.316 µM; spheroids with HUVEC and MSC
From the text: DNA G-quadruplex Stabilizer Agents in Combinations in Complex Spheroids A high-throughput screen of multi-cell type tumor spheroids was designed to identify active combinations of DNA G-quadruplex stabilizer agents and targeted small molecules. […] Compounds. […] If the clinical Cmax for an agent had not been determined, the highest concentration tested was 10 microM. […]
Labels: True (active), False (inactive)

>>> class_name("CC1COCCN1c1cc(C2(O)CC3CCC(C2)O3)c2cnn(-c3ccn[nH]3)c2n1 (stereo not given) + Cc1[nH]c2ccc(F)cc2c1-c1nc2c3cccnc3c3ncccc3c2[nH]1")
"False"
>>> class_name("Cn1ncnc1[C@H]1c2n[nH]c(=O)c3cc(F)cc(c23)N[C@@H]1c1ccc(F)cc1 + CN(C)c1ccc(Nc2c3ccc(NC(=O)CCN4CCCC4)cc3nc3cc(NC(=O)CCN4CCCC4)ccc23)cc1")
"False"
>>> class_name("CC[C@@]1(O)C(=O)OCc2c1cc1n(c2=O)Cc2cc3c(CN(C)C)c(O)ccc3nc2-1 + CN(C)c1ccc(Nc2c3ccc(NC(=O)CCN4CCCC4)cc3nc3cc(NC(=O)CCN4CCCC4)ccc23)cc1")
"False"
>>> class_name("O=C(c1cc(Cc2n[nH]c(=O)c3ccccc23)ccc1F)N1CCN(C(=O)C2CC2)CC1 + CN(C)c1ccc(Nc2c3ccc(NC(=O)CCN4CCCC4)cc3nc3cc(NC(=O)CCN4CCCC4)ccc23)cc1")
"False"
>>> class_name("Cc1[nH]c2ccccc2c1CCNCc1ccc(/C=C/C(=O)NO)cc1 + Cc1cnc(CNC(=O)c2c(=O)c3ccc(N4CCCN(C)CC4)nc3n3c2sc2ccccc23)cn1")
"True"

----------
System: 454973-116-R2-J3-PDC spheroids, viability, % test/control
Test: Anticancer human tumor 454973-116-R2-J3-PDC cell line growth inhibition [GQUAD];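 also: spheroids exposed to compounds for seven days; 100% = DMSO vehicle control viability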
Conditions: second compound 10 µM; first compound 0.1 µM; active compounds read low; spheroids with HUVEC and MSC
Source text: DNA G-quadruplex Stabilizer Agents in Combinations in Complex Spheroids A high-throughput screen of multi-cell type tumor spheroids was designed to identify active combinations of DNA G-quadruplex stabilizer agents and targeted small molecules. […] Compounds. […] If the clinical Cmax for an agent had not been determined, the highest concentration tested was 10 microM. […]
Note: every record was labeled by where its viability, T/C sits among lo (below 20%), mid (20% to below 70%), hi (70% or more)

>>> class_name("C#Cc1c(F)ccc2cc(O)cc(-c3ncc4c(N5CC6CCC(C5)N6)nc(OCC56CCCN5CC(F)C6)nc4c3F)c12 (stereo unspecified) + Cc1[nH]c2ccc(F)cc2c1-c1nc2c3cccnc3c3ncccc3c2[nH]1")
"mid"
>>> class_name("COc1cccc2c1C(=O)c1c(O)c3c(c(O)c1C2=O)CC(O)(C(=O)CO)CC3OC1CC(N)C(O)C(C)O1 (stereo unspecified) + Cc1[nH]c2ccc(F)cc2c1-c1nc2c3cccnc3c3ncccc3c2[nH]1")
"mid"
>>> class_name("C=CCn1c(=O)c2cnc(Nc3ccc(N4CCN(C)CC4)cc3)nc2n1-c1cccc(C(C)(C)O)n1 + Cc1[nH]c2ccc(F)cc2c1-c1nc2c3cccnc3c3ncccc3c2[nH]1")
"hi"
>>> class_name("CC(=O)O[C@H]1C(=O)[C@@]2(C)[C@H]([C@H](OC(=O)c3ccccc3)[C@]3(O)C[C@H](OC(=O)[C@H](O)[C@@H](NC(=O)c4ccccc4)c4ccccc4)C(C)=C1C3(C)C)[C@]1(OC(C)=O)CO[C@@H]1C[C@@H]2O + Cc1cnc(CNC(=O)c2c(=O)c3ccc(N4CCCN(C)CC4)nc3n3c2sc2ccccc23)cn1")
"lo"
>>> class_name("CC(C)(O)C1CCC(Nc2ccc3ncc(-c4cccc(C(F)(F)F)c4)n3n2)CC1 (stereo unspecified) + Cc1cnc(CNC(=O)c2c(=O)c3ccc(N4CCCN(C)CC4)nc3n3c2sc2ccccc23)cn1")
"lo"
>>> class_name("CC1COCCN1c1cc(C2(S(C)(=N)=O)CC2)nc(-c2ccnc3[nH]ccc23)n1 (stereo unspecified) + Cc1cnc(CNC(=O)c2c(=O)c3ccc(N4CCCN(C)CC4)nc3n3c2sc2ccccc23)cn1")
"lo"
>>> class_name("CC(C)n1c(=O)n(C)c2cnc3cc(F)c(-c4ccc(OCCCN5CCCCC5)nc4)cc3c21 + Cc1[nH]c2ccc(F)cc2c1-c1nc2c3cccnc3c3ncccc3c2[nH]1")
"hi"
>>> class_name("CC1COCCN1c1cc(C2(O)CC3CCC(C2)O3)c2cnn(-c3ccn[nH]3)c2n1 (stereo unspecified) + Cc1[nH]c2ccc(F)cc2c1-c1nc2c3cccnc3c3ncccc3c2[nH]1")
"mid"
>>> class_name("CCCS(=O)(=O)Nc1ccc(F)c(C(=O)c2c[nH]c3ncc(-c4ccc(Cl)cc4)cc23)c1F + Cc1[nH]c2ccc(F)cc2c1-c1nc2c3cccnc3c3ncccc3c2[nH]1")
"hi"
>>> class_name("CC(C)n1c(=O)n(C)c2cnc3cc(F)c(-c4ccc(OCCCN5CCCCC5)nc4)cc3c21 + CN(C)c1ccc(Nc2c3ccc(NC(=O)CCN4CCCC4)cc3nc3cc(NC(=O)CCN4CCCC4)ccc23)cc1")
"hi"

----------
Listed here are molecules together with their documented viability, T/C.
system: 454973-116-R2-J3-PDC spheroids, viability, % test/control; assay: Anticancer human tumor 454973-116-R2-J3-PDC cell line growth inhibition [GQUAD]; conditions: second compound 3.16 µM; first compound 0.316 µM; active compounds read low; spheroids with HUVEC and MSC;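 also: spheroids exposed to compounds for seven days; 100% = DMSO vehicle control viability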
QUANTITY_KIND: viability, T/C (%)

>>> val("Cn1ncnc1[C@H]1c2n[nH]c(=O)c3cc(F)cc(c23)N[C@@H]1c1ccc(F)cc1 + Cc1cnc(CNC(=O)c2c(=O)c3ccc(N4CCCN(C)CC4)nc3n3c2sc2ccccc23)cn1")
53.6
>>> val("COc1ccc([C@@H](O)c2cc(-c3ncnc4cc(N5CCOCC5)ccc34)c(F)cc2Cl)nn1 + CN(C)c1ccc(Nc2c3ccc(NC(=O)CCN4CCCC4)cc3nc3cc(NC(=O)CCN4CCCC4)ccc23)cc1")
85.2
>>> val("CC1COCCN1c1cc(-c2ccnn2C)c2ccnc(-c3ccn[nH]3)c2n1 (stereo not given) + CN(C)c1ccc(Nc2c3ccc(NC(=O)CCN4CCCC4)cc3nc3cc(NC(=O)CCN4CCCC4)ccc23)cc1")
38
>>> val("O=C(c1cc(Cc2n[nH]c(=O)c3ccccc23)ccc1F)N1CCN(C(=O)C2CC2)CC1 + Cc1cnc(CNC(=O)c2c(=O)c3ccc(N4CCCN(C)CC4)nc3n3c2sc2ccccc23)cn1")
64
>>> val("C#Cc1c(F)ccc2cc(O)cc(-c3ncc4c(N5CC6CCC(C5)N6)nc(OCC56CCCN5CC(F)C6)nc4c3F)c12 (stereo not given) + Cc1cnc(CNC(=O)c2c(=O)c3ccc(N4CCCN(C)CC4)nc3n3c2sc2ccccc23)cn1")
19.3
>>> val("O=C(c1cc(Cc2n[nH]c(=O)c3ccccc23)ccc1F)N1CCN(C(=O)C2CC2)CC1 + Cc1[nH]c2ccc(F)cc2c1-c1nc2c3cccnc3c3ncccc3c2[nH]1")
84
>>> val("C=CC(=O)N1CCN(c2nc(=O)n(-c3c(C)ccnc3C(C)C)c3nc(-c4c(O)cccc4F)c(F)cc23)C(C)C1 (stereo not given) + Cc1[nH]c2ccc(F)cc2c1-c1nc2c3cccnc3c3ncccc3c2[nH]1")
96.4
>>> val("C#Cc1c(F)ccc2cc(O)cc(-c3ncc4c(N5CC6CCC(C5)N6)nc(OCC56CCCN5CC(F)C6)nc4c3F)c12 (stereo not given) + Cc1[nH]c2ccc(F)cc2c1-c1nc2c3cccnc3c3ncccc3c2[nH]1")
27.2
>>> val("CCc1c2c(nc3ccc(O)cc13)-c1cc3c(c(=O)n1C2)COC(=O)[C@]3(O)CC + Cc1[nH]c2ccc(F)cc2c1-c1nc2c3cccnc3c3ncccc3c2[nH]1")
5.63
>>> val("CCCS(=O)(=O)Nc1ccc(F)c(C(=O)c2c[nH]c3ncc(-c4ccc(Cl)cc4)cc23)c1F + CN(C)c1ccc(Nc2c3ccc(NC(=O)CCN4CCCC4)cc3nc3cc(NC(=O)CCN4CCCC4)ccc23)cc1")
101
>>> val("COc1ncnc(C2CC2)c1-c1ncc2cnn(Cc3ccc(-c4nc(C(F)(F)F)cn4C(C)C)cc3)c2n1 + Cc1[nH]c2ccc(F)cc2c1-c1nc2c3cccnc3c3ncccc3c2[nH]1")
99.4
>>> val("CC(C)(O)C1CCC(Nc2ccc3ncc(-c4cccc(C(F)(F)F)c4)n3n2)CC1 (stereo not given) + CN(C)c1ccc(Nc2c3ccc(NC(=O)CCN4CCCC4)cc3nc3cc(NC(=O)CCN4CCCC4)ccc23)cc1")
80.2
>>> val("COc1cccc2c1C(=O)c1c(O)c3c(c(O)c1C2=O)CC(O)(C(=O)CO)CC3OC1CC(N)C(O)C(C)O1 (stereo not given) + CN(C)c1ccc(Nc2c3ccc(NC(=O)CCN4CCCC4)cc3nc3cc(NC(=O)CCN4CCCC4)ccc23)cc1")
40.2
>>> val("O=C(NO)c1cnc(N2CCN(S(=O)(=O)c3ccc4ccccc4c3)CC2)nc1 + Cc1[nH]c2ccc(F)cc2c1-c1nc2c3cccnc3c3ncccc3c2[nH]1")
66.9
>>> val("CC1COCCN1c1cc(C2(S(C)(=N)=O)CC2)nc(-c2ccnc3[nH]ccc23)n1 (stereo not given) + CN(C)c1ccc(Nc2c3ccc(NC(=O)CCN4CCCC4)cc3nc3cc(NC(=O)CCN4CCCC4)ccc23)cc1")
90.1
>>> val("CC1COCCN1c1cc(-c2ccnn2C)c2ccnc(-c3ccn[nH]3)c2n1 (stereo not given) + Cc1cnc(CNC(=O)c2c(=O)c3ccc(N4CCCN(C)CC4)nc3n3c2sc2ccccc23)cn1")
31.5
>>> val("O=c1[nH]cc(F)c(=O)[nH]1 + CN(C)c1ccc(Nc2c3ccc(NC(=O)CCN4CCCC4)cc3nc3cc(NC(=O)CCN4CCCC4)ccc23)cc1")
95.7
>>> val("O=c1[nH]cc(F)c(=O)[nH]1 + Cc1cnc(CNC(=O)c2c(=O)c3ccc(N4CCCN(C)CC4)nc3n3c2sc2ccccc23)cn1")
64.2
>>> val("CC(=O)O[C@H]1C(=O)[C@@]2(C)[C@H]([C@H](OC(=O)c3ccccc3)[C@]3(O)C[C@H](OC(=O)[C@H](O)[C@@H](NC(=O)c4ccccc4)c4ccccc4)C(C)=C1C3(C)C)[C@]1(OC(C)=O)CO[C@@H]1C[C@@H]2O + Cc1cnc(CNC(=O)c2c(=O)c3ccc(N4CCCN(C)CC4)nc3n3c2sc2ccccc23)cn1")
32.1
>>> val("COc1ncnc(C2CC2)c1-c1ncc2cnn(Cc3ccc(-c4nc(C(F)(F)F)cn4C(C)C)cc3)c2n1 + Cc1cnc(CNC(=O)c2c(=O)c3ccc(N4CCCN(C)CC4)nc3n3c2sc2ccccc23)cn1")
61.7

The reported numbers originate from PubChem BioAssay AID2060508.
